# assay: Cytotoxicity test (MTT), U937
# Type: cell-based
# experimental-context: human, U937 cells (monocytic blood cancer-derived cell line); U937, 48 h, 0.01 μM; read-out: Cell viability (% of control)
reported-endpoint: viability at 48 h, 0.01 µM (%)
Write the number in % without appending the unit.

>>> assay_value("Cc1nc(NC(=S)Nc2ccc(Cl)cc2)c(C)c(C)c1O")
99.6
>>> assay_value("Cc1nc(NC(=S)NC2CCCCC2)c(C)c(C)c1O")
88.8
>>> assay_value("COCCOC(=O)Nc1nc(C)c(O)c(C)c1C")
85.4

Proceed to the following item.
Prompt: Quick one: viability at 48 h, 0.01 µM for COc1cccc2c1C(=O)c1c(O)c3c(c(O)c1C2=O)C[C@@](O)(C(=O)CO)C[C@@H]3O[C@H]1C[C@H](N)[C@H](O)[C@H](C)O1 [Doxorubicin, reference compound] ?
Completion: 93.6
